Molecular target: NGAL (Homo sapiens, UniProt P80188)
Construct: made in house; host or cells: E. coli BL-21
Sequence (P80188 21-198): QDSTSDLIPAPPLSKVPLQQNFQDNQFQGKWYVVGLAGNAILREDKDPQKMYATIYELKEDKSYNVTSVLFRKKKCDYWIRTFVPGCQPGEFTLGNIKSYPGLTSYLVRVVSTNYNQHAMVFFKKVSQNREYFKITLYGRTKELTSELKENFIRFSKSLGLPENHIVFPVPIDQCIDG
Assay: NGAL:siderophore:iron binding assay (retention on 10 kDa filter)
Conditions: iron retention by NGAL on filter
measuredMetric: NGAL-siderophore-Fe binding activity (in words)

>>> result("O=c1oc2c(O)c(O)cc3c(=O)oc4c(O)c(O)cc1c4c23")
"active"
>>> result("O=C(O[C@@H]1Cc2c(O)cc(O)cc2O[C@@H]1c1cc(O)c(O)c(O)c1)c1cc(O)c(O)c(O)c1 [(−) Epigallocatechin gallate]")
"active"
>>> result("O=c1c(O)c(-c2cc(O)c(O)c(O)c2)oc2cc(O)cc(O)c12")
"active"

---

Assay: Siderophore:iron binding assay (paper chromatography)
Conditions: 55Fe mobilised by compound on paper chromatogram developed in water; Yes/No
measuredMetric: Fe: Chromatography

>>> result("NCCc1cc(O)c(O)c(O)c1 [5-Hydroxydopamine]")
"No"
>>> result("O=C(O)c1cccnc1 [Nicotinic acid]")
"No"
>>> result("O=C([O-])CC(O)(CC(=O)[O-])C(=O)[O-].[Na+].[Na+].[Na+] [Citric acid sodium]")
"Yes"
>>> result("N[C@@H](Cc1c[nH]c2ccccc12)C(=O)O [L-Tryptophan]")
"No"
>>> result("O=C(O)/C=C/c1ccc(O)c(O)c1 [Caffeic acid]")
"No"
>>> result("COc1ccccc1O [Guaiacol]")
"No"
>>> result("NC(Cc1ccc(O)c(O)c1)C(=O)O (racemic) [3,4-Dihydroxy-DL-phenylalanine]")
"Yes"
>>> result("O=C(O)c1cc(O)ccc1O [Gentistic Acid]")
"No"

What does the data say about its Fe: Chromatography? Entry: Nc1nc2[nH]cc(CNc3ccc(C(=O)N[C@@H](CCC(=O)O)C(=O)O)cc3)nc-2c(=O)n1 [Folic acid]
No

---

Experiment: Siderophore:iron binding assay (paper chromatography)
Details: 55Fe mobilised by compound on paper chromatogram developed in water; Yes/No
From the text: Siderophore:Iron Binding Assay. To test whether candidates bound iron directly, candidates (1 nmole) were mixed with ^55Fe (1 pmole), and then separated bound from free ^55Fe using paper chromatography developed in water. […]
measuredMetric: Fe: Chromatography

>>> result("Oc1cccc(O)c1O")
"Yes"
>>> result("NC(=O)c1ccc[n+]([C@@H]2O[C@H](COP(=O)(O)OP(=O)(O)OC[C@H]3O[C@@H](n4cnc5c(N)ncnc54)[C@H](OP(=O)(O)O)[C@@H]3O)[C@@H](O)[C@H]2O)c1")
"Yes"
>>> result("O=C(O)c1cccnc1C(=O)O")
"No"
>>> result("O=C(O[C@@H]1Cc2c(O)cc(O)cc2O[C@@H]1c1cc(O)c(O)c(O)c1)c1cc(O)c(O)c(O)c1 [(−) Epigallocatechin gallate]")
"Yes"
>>> result("NCc1[nH]cc(CCC(=O)O)c1CC(=O)O")
"No"
>>> result("O=C(O)c1ccc(O)c(O)c1 [3,4- Dihydroxybenzoic Acid]")
"Yes"

What does the data say about its Fe: Chromatography? Entry: C=CC1=C(C)/C(=C/c2[nH]c(Cc3[nH]c(/C=C4\NC(=O)C(C)=C4C=C)c(C)c3CCC(=O)O)c(CCC(=O)O)c2C)NC1=O
No

What does the data say about its Fe: Chromatography? Entry: COc1cc(/C=C/C(=O)O)ccc1O
No

What does the data say about its Fe: Chromatography? Entry: O=C(O)c1ccccc1O
No

What does the data say about its Fe: Chromatography? Entry: O=S1(=O)Oc2ccccc2O1 [Catechol cyclic sulfonate]
No

---

Assay: Siderophore:iron binding assay (paper chromatography)
Conditions: 55Fe mobilised by compound on paper chromatogram developed in water; Yes/No
measuredMetric: Fe: Chromatography

>>> result("Cc1cccc(O)c1O")
"Yes"
>>> result("COc1ccccc1OC")
"No"
>>> result("NC(=O)c1ccc[n+]([C@@H]2O[C@H](COP(=O)(O)OP(=O)(O)OC[C@H]3O[C@@H](n4cnc5c(N)ncnc54)[C@H](O)[C@@H]3O)[C@@H](O)[C@H]2O)c1")
"No"
>>> result("CC(=O)NC(CC(=O)O)c1ccccc1 (racemic)")
"No"

---

Biological target: NGAL (Homo sapiens, UniProt P80188)
Construct: made in house; host or cells: E. coli BL-21
Assay: NGAL:siderophore:iron binding assay (retention on 10 kDa filter)
Conditions: apoNGAL 10 μM, 55Fe, compound 10 μM, pH 7.4, washed on 10 kDa filter
measuredMetric: NGAL: Chelator: Fe % Retention
Answer format: value, then unit.

// below: answered compounds
>>> result("N[C@@H](Cc1c[nH]c2ccc(O)cc12)C(=O)O [5-Hydroxytryptophan]")
"4%"
>>> result("O=C([O-])CC(O)(CC(=O)[O-])C(=O)[O-].[Na+].[Na+].[Na+] [Citric acid sodium]")
"6%"
>>> result("C=CC1=C(C)c2cc3[nH]c(cc4nc(cc5[nH]c(cc1n2)c(C)c5CCC(=O)O)C(CCC(=O)O)=C4C)c(C)c3C=C [Protoporphyrin IX]")
"3%"

What does the data say about its NGAL: Chelator: Fe % Retention? Entry: NCc1[nH]cc(CCC(=O)O)c1CC(=O)O [Porphobilinogen]
3%

---

Target: NGAL (Homo sapiens, UniProt P80188)
Construct: made in house; host or cells: E. coli BL-21
Assay: NGAL:siderophore:iron binding assay (retention on 10 kDa filter)
Settings: iron retention by NGAL on filter
Description: NGAL:Siderophore:Iron Binding Assays. […] After 60 minutes, the mixture was washed 3 times (YM-10) or alternatively gel filtered (PD-10, GE Biosciences). Ent loaded NGAL served as a positive control. Ferric citrate (1 mM) or Ent:iron (500 μM) served as competitors of ^55Fe binding. After 60 minutes at room temperature, the mixture was then washed 3 times on a 10-kDa membrane (Amicon YM-10; Millipore Corp.). […]
measuredMetric: NGAL-siderophore-Fe binding activity (in words)

>>> result("Oc1cccc(O)c1O")
"highest activities"
>>> result("O=C(/C=C/c1ccc(O)c(O)c1)O[C@H](Cc1ccc(O)c(O)c1)C(=O)O")
"active"
>>> result("O=C(O)c1cccc(O)c1O [2,3- Dihydroxybenzoic acid]")
"active"
>>> result("Cc1ccc(O)c(O)c1")
"highest activities"

---

Test: Siderophore:iron binding assay (paper chromatography)
Conditions: 55Fe mobilised by compound on paper chromatogram developed in water; Yes/No
Where a name gives a salt, the structure may show the parent alone.
measuredMetric: Fe: Chromatography

>>> result("O=c1c(O)c(-c2cc(O)c(O)c(O)c2)oc2cc(O)cc(O)c12 [Myricetin]")
"No"
>>> result("NCC(=O)c1ccc(O)c(O)c1 (racemic) [DL- Norepinephrine•HCl]")
"No"
>>> result("NC(=O)C1=CN([C@@H]2O[C@H](COP(=O)(O)OP(=O)(O)OC[C@H]3O[C@@H](n4cnc5c(N)ncnc54)[C@H](OP(=O)(O)O)[C@@H]3O)[C@@H](O)[C@H]2O)C=CC1 [NADPH]")
"Yes"
>>> result("Cc1ncc(CO)c(C=O)c1O [Pyridoxal]")
"No"
>>> result("Cc1ncc(CO)c(C(=O)O)c1O [4-Pyridoxic Acid]")
"No"

What does the data say about its Fe: Chromatography? Entry: O=C(O)Cc1cc(O)ccc1O [Homogentisic acid]
No

What does the data say about its Fe: Chromatography? Entry: COc1cccc(C(=O)O)c1OC [2,3 Dimethoxybenzoic acid]
No

What does the data say about its Fe: Chromatography? Entry: O=C(/C=C/c1ccc(O)c(O)c1)O[C@H](Cc1ccc(O)c(O)c1)C(=O)O [Rosmarinic acid]
Yes

What does the data say about its Fe: Chromatography? Entry: NCC(=O)CCC(=O)O [5-Aminolevulinic acid]
No

What does the data say about its Fe: Chromatography? Entry: Nc1c(O)cccc1C(=O)CC(N)C(=O)O (racemic) [3-Hydroxy-DL-kynurenine]
Yes

What does the data say about its Fe: Chromatography? Entry: O=C(O)CC(C(=O)O)C(O)C(=O)O (racemic) [Isocitric acid]
Yes

What does the data say about its Fe: Chromatography? Entry: Cc1ccc(O)c(O)c1 [4-methylcatechol]
Yes

---

Let's look at some molecules and their measured NGAL: Chelator: Fe % Retention.
Molecular target: NGAL (Homo sapiens, UniProt P80188)
Construct: made in house; host or cells: E. coli BL-21
Assay: NGAL:siderophore:iron binding assay (retention on 10 kDa filter)
Details: apoNGAL 10 μM, 55Fe, compound 10 μM, pH 7.4, washed on 10 kDa filter
Counter-ions that a name gives are not always drawn.
Numbers only here, please. The scale is %.

// below: answered molecules
>>> quantitativereadout("O=C(O)CNC(=O)c1ccco1 [2-Furoylglycine]")
6
>>> quantitativereadout("Nc1c(O)cccc1C(=O)CC(N)C(=O)O (racemic) [3-Hydroxy-DL-kynurenine]")
3
>>> quantitativereadout("O=C(O[C@@H]1Cc2c(O)cc(O)cc2O[C@@H]1c1cc(O)c(O)c(O)c1)c1cc(O)c(O)c(O)c1 [(−) Epigallocatechin gallate]")
45
>>> quantitativereadout("O=C(O)c1ccccc1O [Salicylic acid]")
15
>>> quantitativereadout("CCC1C(=O)NC(CC2=N/C(=C\\c3[nH]c(CC4NC(=O)C(C)C4CC)c(C)c3CCC(=O)O)C(CCC(=O)O)=C2C)C1C (stereo not drawn) [Urobilin HCl]")
3

What does the data say about its NGAL: Chelator: Fe % Retention? Entry: NCC(=O)CCC(=O)O [5-Aminolevulinic acid]
3

What does the data say about its NGAL: Chelator: Fe % Retention? Entry: O=C(O)c1cc(O)ccc1O [Gentistic Acid]
6

The reported numbers originate from patent US20110268818A1.
